So I've got a bunch of molecules here, and I need their GIC RAW 264.7 Cell Line values.
# System: murine macrophage RAW 264.7 cell line
# Applied Conditions: resazurin assay, 48 h incubation
Your answer is read as mg/L, so omit the unit and give the number.

Entry CN(Cc1cnc2nc(N)nc(N)c2n1)c1ccc(C(=O)N[C@@H](CCC(=O)O)C(=O)O)cc1 [Methotrexate, reference compound] ; GIC RAW 264.7 Cell Line = 0.122

Looking up `O=C(/C=C/c1ccc([N+](=O)[O-])o1)c1ccc(N2CCCCC2)cc1` , I see its GIC RAW 264.7 Cell Line listed as 125

For record `O=C(/C=C/c1ccc([N+](=O)[O-])o1)c1ccc(N2CCOCC2)cc1` the listed GIC RAW 264.7 Cell Line is 125

Form field GIC RAW 264.7 Cell Line, entry `CCN(CC)c1ccc(C(=O)/C=C/c2ccc([N+](=O)[O-])o2)cc1` : 31.25
